Test system: PA-1
Test: Primary qHTS to identify gynecologic anti-cancer compounds using libraries of approved drugs and bioactive compounds (AID 1345084); also: nearly all actives have a fitted effect of over 55% in size
Conditions: Gynecologic cancer cell panel viability, ATPlite luminescence, 48 h; series mostly up to 57.5 µM
Results filed as inconclusive are left out. Calls of active or inactive are those of the source. Calls follow the shape of the dose curve; as a rule, active = well fitted cell-killing curve with a large enough effect; inconclusive = small, poorly fitted or top-dose-only effect, or effect the other way; inactive = flat fitted curve, though single readings scatter.

| MOLECULE | TARGET OR TEST SYSTEM | activity change, negative = cytotoxicity |
| --- | --- | --- |
| CC1OC(C)OC(C)O1 (stereo not drawn) | PA-1 | inactive |
| O=c1[nH]c2ccccc2n1CCCN1CCC(n2c(=O)[nH]c3cc(Cl)ccc32)CC1 | PA-1 | inactive |
| N[C@@H](Cc1ccc(Oc2cc(I)c(O)c(I)c2)c(I)c1)C(=O)O | PA-1 | inactive |
